Test system: monoclonal IgM HEA binding to gp120
Parameters: species or system human
protocol conditions: gp120 elisa
Parameter: RESIDUAL BINDING TO gp120 (% OF CONTROL), 10.0 μM PEPTIDE. Scope: all listed entries.
parameter: RESIDUAL BINDING TO gp120 (% OF CONTROL), 10.0 μM PEPTIDE

{"sequence content": "KQIINMWQEVGKAMYAPPIE [Peptide 2007, gp160 peptide 421-440, HIV-1 MN]", "readout number": 10.3}
{"sequence content": "LKCNDKKFSGKGSCKNVSTV [Peptide 1959, gp160 peptide 231-250, HIV-1 MN]", "readout number": 8.4}
{"sequence content": "KGSCKNVSTVQCTHGIRPVV [Peptide 1960, gp160 peptide 241-260, HIV-1 MN]", "readout number": 6.2}
{"sequence content": "KWNDTLRQIVSKLKEQFKNK [Peptide 1989, gp160 peptide 341-360, HIV-1 MN]", "readout number": 26.2}
{"sequence content": "RQAHCNISRAKWNDTLRQIV [Peptide 1988, gp160 peptide 331-350, HIV-1 MN]", "readout number": 40.8}
{"sequence content": "MRVKGIRRNYQHWWGWGTM [Peptide 1919, gp160 peptide, amino acids 1-20, HIV-1 MN]", "readout number": 15.1}
